kon for assorted binders
STUDY TARGET: T1, full-length recombinant human PAD4 (human, UniProt Q9UM07 1-663)
T1 construct: Full-length recombinant; also called peptidylarginine deiminase 4
T1 sequence (Q9UM07 whole entry): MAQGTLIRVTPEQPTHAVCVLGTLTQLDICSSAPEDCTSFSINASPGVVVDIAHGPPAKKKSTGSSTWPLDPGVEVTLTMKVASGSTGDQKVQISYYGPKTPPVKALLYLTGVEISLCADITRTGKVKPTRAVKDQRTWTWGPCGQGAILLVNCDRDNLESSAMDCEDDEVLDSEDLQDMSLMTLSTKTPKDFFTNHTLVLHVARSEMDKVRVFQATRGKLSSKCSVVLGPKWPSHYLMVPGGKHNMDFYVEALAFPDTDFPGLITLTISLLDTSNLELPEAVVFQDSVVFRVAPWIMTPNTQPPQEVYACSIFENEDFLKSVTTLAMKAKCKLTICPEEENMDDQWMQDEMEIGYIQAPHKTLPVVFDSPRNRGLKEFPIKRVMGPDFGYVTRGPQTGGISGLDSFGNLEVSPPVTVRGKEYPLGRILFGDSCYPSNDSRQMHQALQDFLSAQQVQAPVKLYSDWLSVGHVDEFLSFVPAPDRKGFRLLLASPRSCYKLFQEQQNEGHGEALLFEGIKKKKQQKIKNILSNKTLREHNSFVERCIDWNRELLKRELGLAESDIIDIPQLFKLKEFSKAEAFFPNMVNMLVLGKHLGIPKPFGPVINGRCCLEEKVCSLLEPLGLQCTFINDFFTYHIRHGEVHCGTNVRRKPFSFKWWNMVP
PROTOCOL DETAILS: SPR (Biacore T200), antibody captured, human PAD4 analyte

{"columns": ["BINDER", "kon"],
 "data": [
  ["H7 (antibody, V domains shown, Chicken variable regions in a mouse chimeric antibody (IgG1); also called anti-PAD4 antibody H7) VH: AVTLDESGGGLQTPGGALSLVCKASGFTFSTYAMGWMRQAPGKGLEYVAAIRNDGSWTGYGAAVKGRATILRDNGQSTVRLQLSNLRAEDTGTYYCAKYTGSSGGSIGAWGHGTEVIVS VL: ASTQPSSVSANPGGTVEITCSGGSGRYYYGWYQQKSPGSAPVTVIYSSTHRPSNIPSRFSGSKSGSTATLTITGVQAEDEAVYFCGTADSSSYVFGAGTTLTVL", "105000 M⁻¹ s⁻¹"],
  ["G6 (antibody, V domains shown, Chicken variable regions in a mouse chimeric antibody (IgG1); also called anti-PAD4 antibody G6) VH: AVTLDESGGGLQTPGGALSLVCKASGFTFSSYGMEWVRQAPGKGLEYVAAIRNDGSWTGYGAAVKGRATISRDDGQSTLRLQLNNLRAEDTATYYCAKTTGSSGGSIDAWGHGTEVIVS VL: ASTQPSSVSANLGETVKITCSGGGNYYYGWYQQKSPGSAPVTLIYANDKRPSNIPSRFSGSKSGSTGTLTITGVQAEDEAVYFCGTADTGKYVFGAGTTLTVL", "44500 M⁻¹ s⁻¹"],
  ["G8 (antibody, V domains shown, Chicken variable regions in a mouse chimeric antibody (IgG1); also called anti-PAD4 antibody G8) VH: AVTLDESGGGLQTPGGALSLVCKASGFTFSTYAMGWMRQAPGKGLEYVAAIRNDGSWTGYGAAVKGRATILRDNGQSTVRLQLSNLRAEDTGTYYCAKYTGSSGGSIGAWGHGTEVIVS VL: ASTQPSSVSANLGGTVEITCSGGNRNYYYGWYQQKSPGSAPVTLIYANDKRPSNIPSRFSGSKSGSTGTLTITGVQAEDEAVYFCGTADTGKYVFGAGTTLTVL", "104000 M⁻¹ s⁻¹"],
  ["E9 (antibody, V domains shown, Chicken variable regions in a mouse chimeric antibody (IgG1); also called anti-PAD4 antibody E9) VH: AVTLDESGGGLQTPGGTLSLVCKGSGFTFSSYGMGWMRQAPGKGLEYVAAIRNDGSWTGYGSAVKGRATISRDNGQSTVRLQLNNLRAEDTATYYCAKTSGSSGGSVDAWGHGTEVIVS VL: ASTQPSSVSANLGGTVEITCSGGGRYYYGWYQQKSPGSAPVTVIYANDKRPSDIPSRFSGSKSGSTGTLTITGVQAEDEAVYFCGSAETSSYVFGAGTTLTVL", "152000 M⁻¹ s⁻¹"]
]}
